These measurements were taken from PubChem BioAssay.

RUN DESCRIPTION: RAM signaling pathway blockade in yeast – S. cerevisiae, Pdr1DBD-CYC8 efflux-inhibited sensitized strain, primary screen (AID 1298);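 further: 0% = DMSO untreated cells without growth and 100% = 10 µM 1-NA-PP1 full growth; higher means more yeast growth rescued from 5-FOA killing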
TEST CONDITIONS: S. cerevisiae cbk1-as DSE1-URA3 strain, 5-FOA growth OD615, 2 d; at 50 µM; stronger effect = higher value
READOUT TYPE: RAM network inhibition (%)

>>> meas_value("Cc1nn(C)c(C)c1N=Cc1c(O)ccc2ccccc12")
-0.32
>>> meas_value("COc1ccccc1-c1cc(C(F)(F)F)nc(N2CCN(c3ccccc3)CC2)n1")
4.72
>>> meas_value("CCOC(=O)C1CCCN(C(=O)c2ccccc2Oc2ccccc2)C1 (stereo unspecified)")
1.27
>>> meas_value("CCCCCc1nnc(NC(=O)OCCC)s1")
-0.93
>>> meas_value("CC(C)(CC(=O)O)Cc1nc(-c2ccc(Cl)cc2)no1")
-3.9
>>> meas_value("Clc1ccccc1CSc1nnc(-c2ccccn2)n1Cc1ccco1")
2.52
>>> meas_value("CCOC(=O)Cn1c(=O)oc2cc(S(=O)(=O)NC3CCCc4ccccc43)ccc21 (stereo unspecified)")
3.75
>>> meas_value("Cc1csc2nc(CNS(=O)(=O)c3ccc4c(c3)CCCC4)cn12")
0.48
>>> meas_value("Cc1cccc(N(C)c2cc(C)nc3ncnn23)c1")
4.73
>>> meas_value("COC(=O)CNC(=O)Cn1cnc2sc(C)c(S(=O)(=O)N3CCC(C)CC3)c2c1=O")
0.37
>>> meas_value("COc1ccc(-c2nc(CSCC(=O)N3CCN(C(=O)c4ccco4)CC3)c(C)o2)cc1OC")
5.11

----------
RUN DESCRIPTION: reversal of MRP1-mediated doxorubicin resistance, pilot screen, H69AR cells, doxorubicin co-treatment (AID 601)
TEST CONDITIONS: H69AR cells, CellTiter-Glo, 72 h; compound alone cytotoxicity; at 10 µM
Parameter: viability. Scope: all listed entries.
READOUT TYPE: viability

>>> meas_value("O=C(N1CCOCC1)N1CCC(NC(=O)C23CC4CC(CC(C4)C2)C3)CC1")
"98.8%"
>>> meas_value("CCOc1nc2ccccc2nc1NS(=O)(=O)c1ccccc1")
"88.5%"
>>> meas_value("CCOC(=O)c1c(C)[nH]c(C=Nc2ccccc2)c1O")
"101%"
>>> meas_value("O=C(Nc1cccc(NC(=O)c2cccnc2)c1)c1cccnc1")
"86.7%"
>>> meas_value("Cc1ccc2cc(CN(Cc3ccc4c(c3)OCO4)Cc3nnnn3Cc3ccco3)c(=O)[nH]c2c1C")
"79.6%"
>>> meas_value("O=[n+]1c2c(n([O-])c3cc(F)c(N4CCCC4)cc31)CCC2")
"74%"
>>> meas_value("CC(C)CNC(=O)C1CC(=O)OC12CCCCC2 (stereo unspecified)")
"113%"
>>> meas_value("N#CC1=C(SCC(=O)NC2CCCCC2)NC(=O)CC1c1ccco1 (stereo unspecified)")
"30.6%"
>>> meas_value("Cn1c(=O)n(CC(=O)OCc2ccccc2)c(=O)c2c1nc1n2CCCN1C1CCCCC1")
"78.7%"
>>> meas_value("O=C(NCCCn1ccnc1)c1cnn2c1NC(c1ccccc1)CC2C(F)(F)F (stereo unspecified)")
"105%"
>>> meas_value("COC(=O)n1c(=S)oc2cc(Cl)ccc21")
"93.6%"
>>> meas_value("CCc1nnc(NC(=O)NCN2C(=O)C3C4C=CC(C4)C3C2=O)s1 (stereo unspecified)")
"95.5%"
>>> meas_value("CC(=O)Nc1ccc(OC(=O)c2cccnc2)cc1")
"99.9%"
>>> meas_value("Cc1cc(C)nc(Sc2ccc3nnc(C(F)(F)C(F)(F)C(F)(F)F)n3n2)n1")
"102%"
>>> meas_value("Cc1cc(Cl)ccc1OCCCC(=O)N1CCOCC1")
"87.7%"
>>> meas_value("O=C(Cn1ncc2c(=O)oc3ccccc3c21)NCC1CCCO1 (stereo unspecified)")
"94.8%"
>>> meas_value("O=C1CN(C(=O)COC(=O)c2ccccc2NC(=O)c2ccco2)c2ccccc2N1")
"83.6%"
>>> meas_value("Cc1cc(C)n2nc(S(=O)(=O)N(C)Cc3ccccc3)nc2n1")
"93.4%"
>>> meas_value("C=CCOc1ccccc1/C=c1\\sc2nc(=O)c(C)nn2c1=O")
"72.6%"
>>> meas_value("O=C(O)CCCCCCC1C(=O)NC(=O)N1CCC(O)C1CCCCC1 (stereo unspecified)")
"99.3%"
>>> meas_value("Cc1ccc(C)c(NC(=O)CC(NCCCN2CCOCC2)C(=O)O)c1 (stereo unspecified)")
"88.3%"
>>> meas_value("CCOC(=O)N1CCN(c2cc3nccnc3cc2F)CC1")
"99.3%"
>>> meas_value("CCOC(=O)N1CCN(C(=O)c2ccc3c(SCC(=O)O)c4c(nc3c2)CCCC4)CC1")
"100%"
>>> meas_value("OCc1nc(CO)n(Cc2ccccc2)n1")
"102%"
>>> meas_value("CCC(NC(C)C)C(O)c1ccc(O)c2[nH]c(=O)ccc12 (stereo unspecified)")
"94.4%"
>>> meas_value("COc1cccc(NC(=O)N2CCCC2C(=O)NC(C)C)c1 (stereo unspecified)")
"99.1%"
>>> meas_value("COc1ccc2c(-c3cccnc3)cc(=O)[nH]c2c1")
"96%"
>>> meas_value("CCOc1ccc(C(=O)OCc2nnc(-c3cccs3)o2)cc1OC")
"99.9%"
>>> meas_value("C/C=C/Cn1c(Br)nc2c1c(=O)[nH]c(=O)n2C")
"93.5%"
>>> meas_value("CCCC1CC(C)(C(=O)Cn2[nH]c(=O)ccc2=O)OC1=O (stereo unspecified)")
"91.8%"
>>> meas_value("C=COC(=O)CSc1snc(SCC(=O)OC)c1C#N")
"98.9%"
>>> meas_value("CCOC(=O)C1C2C=CC3(CN(c4cccc(Cl)c4)C(=O)C13)O2 (stereo unspecified)")
"97.5%"
>>> meas_value("COc1ccc(C(=O)Nn2c(C3CCC3)nc3ccccc3c2=O)c(OC)c1")
"111%"
>>> meas_value("CC(=O)Nc1ccc(OCC(O)CN2CCN(c3cccc(Cl)c3)CC2)cc1 (stereo unspecified)")
"88.4%"
>>> meas_value("CCCC1(C(=O)OCC)NC(c2ccc(N(C)C)cc2)C2C(=O)N(c3ccccc3)C(=O)C21 (stereo unspecified)")
"97.2%"
>>> meas_value("COc1cccc(Oc2cn[nH]c2-c2ccc(O)cc2O)c1")
"89.5%"
>>> meas_value("Cc1onc(-c2ccccc2)c1C(N)=O")
"100%"
>>> meas_value("Cc1ccc(S(=O)(=O)NCCC(=O)OCn2nnc3ccccc3c2=O)cc1")
"95.1%"
>>> meas_value("CC1CN(c2nc(-c3ccccc3)nc3ccccc23)CC(C)O1 (stereo unspecified)")
"85.4%"
>>> meas_value("CCOc1cc(N2CCOCC2)c(OCC)cc1NC(=O)COC(=O)CCc1c[nH]c2ccccc12")
"99.4%"
>>> meas_value("Cc1nn(-c2ccccc2)c2c1C(c1c(C)[nH]c(C#N)c1C)C(C#N)=C(N)O2 (stereo unspecified)")
"92.7%"
>>> meas_value("CCCCC(=O)NCCc1cc2ccc(OC)cc2[nH]c1=O")
"103%"
>>> meas_value("O=c1c2cc(N3CCOCC3)ccc2[nH]c(=S)n1CCCN1CCCC1")
"100%"
>>> meas_value("Cn1c(=O)c2c(nc(Br)n2CCSc2ncccn2)n(C)c1=O")
"103%"
>>> meas_value("CCOc1ccccc1NS(=O)(=O)c1c(C)noc1C")
"109%"
>>> meas_value("CCCCSc1nc2c(cnn2-c2ccc(Cl)cc2)c(=O)[nH]1")
"75.1%"

----------
RUN DESCRIPTION: reversal of MRP1-mediated doxorubicin resistance, pilot screen, H69AR cells, doxorubicin co-treatment (AID 601)
TEST CONDITIONS: H69AR cells + 2 uM doxorubicin, CellTiter-Glo, 72 h; measured here: viability with 2 uM doxorubicin; at 10 µM; stronger effect = lower value
Parameter: viability. Scope: all listed entries.
READOUT TYPE: viability (%)

>>> meas_value("CCOC(=O)c1ccccc1NC(=O)c1cc2sccc2n1C")
77
>>> meas_value("C=CS(=O)(=O)c1ccc(Oc2ccc(S(=O)(=O)C=C)cc2)cc1")
0.865
>>> meas_value("Nc1cc(-c2ccc(Br)cc2)nn1S(=O)(=O)c1ccccc1")
87.5
>>> meas_value("CCOC(=O)CSc1nc(N)c2c3c(sc2n1)CCCC3")
89.3
>>> meas_value("Cc1ccc2[nH]c3c(c2c1)CCc1cn[nH]c1-3")
56.7
>>> meas_value("c1ccc2nc(-c3nc4ccccc4[nH]3)ccc2c1")
70.6
>>> meas_value("COc1cccc(CNc2nc3nc(C)c(Cl)c(C)n3n2)c1")
83.3
>>> meas_value("Cc1sc2c(c1C)CN(C1CC(C)(C)NC(C)(C)C1)CN2C(=O)c1ccco1")
83.4
>>> meas_value("CCCCC1C(=O)N(c2ccccc2)N(c2ccccc2)C1=O")
91.1
>>> meas_value("CCCOc1ccc(/C(O)=C2/C(=O)C(=O)N(CCCOC)C2c2ccncc2)cc1 (stereo not drawn)")
86.7
>>> meas_value("CCCOC(=O)CSc1nc(N)c(C#N)c(CC)c1C#N")
93.9
>>> meas_value("Cn1c(SCc2ccc3c(c2)OCO3)nnc1-c1ccccc1")
84.4
>>> meas_value("Cc1cc(=O)oc2cc(OCC(=O)OCc3nnc(-c4ccccc4)o3)ccc12")
91.9
>>> meas_value("COc1ccc2c(c1)Sc1ccccc1N2CCN(C)C")
72.3
>>> meas_value("CC(C)OC(=O)CSc1nc2cccnc2n1C1CCCCC1")
89.4
>>> meas_value("CCCc1ccc(S(=O)(=O)NCCc2ccncc2)cc1")
89.6
>>> meas_value("CCC1(C)Cc2c(C#N)c(N)n(-c3ccccc3)c(=O)c2CO1 (stereo not drawn)")
89.7
>>> meas_value("CCCCOCP(=O)(CCCC)COCCCC")
88.8
>>> meas_value("CCOc1c(C)cc2[nH]c(CCC(=O)O)nc2c1C")
94.3
>>> meas_value("Cn1c(-n2c(-c3ccco3)nc3ccccc3c2=O)nc2ccccc21")
85
>>> meas_value("O=C(c1ccco1)N1CCN(c2cccc(Cl)c2)CC1")
92.7
>>> meas_value("CCOC(=O)c1ccc(NC(=O)CCc2nc(-c3cccc(C)c3)no2)cc1")
99.1
>>> meas_value("CCCC1C(C#N)=C(N)Oc2n[nH]c(C(C)(C)C)c21 (stereo not drawn)")
94.4
>>> meas_value("CCOC(=O)C1CCCN(C(=O)c2cc(=O)c3ccccc3o2)C1 (stereo not drawn)")
102
>>> meas_value("CCCC1CC(C)(C(=O)Cn2[nH]c(=O)ccc2=O)OC1=O (stereo not drawn)")
95.4
>>> meas_value("C[C@H](NC(=O)Nc1cccc(C(F)(F)F)c1)C(=O)O")
87.9
>>> meas_value("COc1ccc(C)cc1-n1nnnc1SCC(=O)Nc1cc(C)on1")
85.9
>>> meas_value("CCOc1cccc(C(=O)N(Cc2ccc(F)cc2)C2CCS(=O)(=O)C2)c1 (stereo not drawn)")
89.9
>>> meas_value("O=C(NC1CC1)C1CCN(c2ccc(S(=O)(=O)N3CCOCC3)cc2)CC1")
77.7
>>> meas_value("COc1ccccc1CNS(=O)(=O)c1ccc(NC(C)=O)cc1")
101
>>> meas_value("O=C(CNC1CCCCCC1)Nc1ccc(S(=O)(=O)NC2CC2)cc1")
87.9
>>> meas_value("CCCn1c2ccccc2c2nnc(SCC(=O)Nc3ncccn3)nc21")
77.4
>>> meas_value("Cc1cc(C(F)F)n2ncc(C(=O)NC3CCCCCC3)c2n1")
90.2
>>> meas_value("CCOc1ccc(C(=O)OCc2nnc(-c3cccs3)o2)cc1OC")
74
>>> meas_value("CCOCCn1cnc2sc(C(=O)Nc3nc(C)c(C(=O)OCC)s3)c(C)c2c1=O")
92.5
>>> meas_value("Cc1cc(C)c2c(n1)nn1c(C3CC3)cc(C(F)(F)F)nc21")
96.4
>>> meas_value("Cc1ccc2nc(NC(=O)C3CCCN(S(=O)(=O)c4cnc[nH]4)C3)sc2c1 (stereo not drawn)")
90.9
>>> meas_value("COc1ccc(C2CC(=O)c3c(C)nc(N4CCN(c5ccccc5)CC4)nc3C2)cc1 (stereo not drawn)")
78.3
>>> meas_value("O=C(CN1CCN(Cc2ccc3c(c2)OCO3)CC1)Nc1ccc2c(c1)OCCO2")
78
>>> meas_value("CCOC(=O)N1CCN(c2c(N3CCc4ccccc4C3)c(=O)c2=O)CC1")
85.4
>>> meas_value("Cn1c(-c2ccccc2)cc(=O)c2ccccc21")
103
>>> meas_value("c1ccc2ncc(-n3cnnn3)cc2c1")
87.9
>>> meas_value("Cc1nc2ccccc2cc1O")
109
>>> meas_value("CCOc1ccc2nc(SCc3ccc(C(=O)OC)o3)[nH]c2c1")
96.4
>>> meas_value("Cc1cc(=O)n2nc(-c3ccccc3)sc2n1")
87.8
>>> meas_value("Cc1cccc(CN2CCN(C(c3ccccc3)c3ccc(Cl)cc3)CC2)c1 (stereo not drawn)")
95.8
>>> meas_value("Cc1ccc(-n2cnnn2)c2cccnc12")
93.5
>>> meas_value("CCOc1ccc(N2C(N)=NC(N)=NC2(C)C)cc1")
102
